- systemName: recombinant GST-GK (Homo sapiens)
- Sequence (P35557 whole entry): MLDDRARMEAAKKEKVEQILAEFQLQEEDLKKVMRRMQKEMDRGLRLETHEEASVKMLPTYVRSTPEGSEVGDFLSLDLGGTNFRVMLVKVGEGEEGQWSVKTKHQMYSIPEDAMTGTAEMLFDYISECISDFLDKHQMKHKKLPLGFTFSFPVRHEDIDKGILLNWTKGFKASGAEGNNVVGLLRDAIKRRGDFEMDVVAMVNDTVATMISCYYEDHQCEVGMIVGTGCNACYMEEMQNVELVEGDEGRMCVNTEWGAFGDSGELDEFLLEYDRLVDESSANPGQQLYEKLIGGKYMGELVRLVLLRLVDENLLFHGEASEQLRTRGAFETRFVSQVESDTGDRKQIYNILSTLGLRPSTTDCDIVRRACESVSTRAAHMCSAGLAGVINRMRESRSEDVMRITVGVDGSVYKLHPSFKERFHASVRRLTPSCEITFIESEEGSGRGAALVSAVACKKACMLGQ
- experimentSummary: primary enzyme assay: glucokinase activation in vitro (thio-NADH coupled assay)
- particulars: concentration of compound that produces a 50% increase in the activity of GK vs DMSO control; 10 mM glucose, 25° C.
Structures can show the parent of a compound that is named as a salt.
Field 'label' (enum: rule met / rule not met). Set to rule met when EC50 is strictly under 7 µM; else rule not met.

{"molecule": "CN1CCN(S(=O)(=O)c2ccc(C(CC3CCCC3)C(=O)Nc3nc4ccc(-c5ccccc5)nc4s3)cc2)CC1 (stereo not shown)", "category": "rule met"}
{"molecule": "CN1CCN(S(=O)(=O)c2ccc(C(CC3CCCC3)C(=O)Nc3nccc4ccccc34)cc2)CC1 (stereo not shown) [Example 1, hydrochloride]", "category": "rule not met"}
{"molecule": "COc1ccc2nc(NC(=O)C(CC3CCCC3)c3ccc(S(=O)(=O)N4CCNCC4C(=O)O)cc3)sc2n1 (stereo not shown)", "category": "rule not met"}
{"molecule": "COCCN(C)C(=O)c1ccc2nc(NC(=O)[C@H](CC3CCCC3)c3ccc(S(=O)(=O)N4CCN(C)CC4)cc3)sc2n1", "category": "rule met"}
{"molecule": "CN1CCN(S(=O)(=O)c2ccc(C(CC3CCCC3)C(=O)Nc3nc4ccc(Br)nc4s3)cc2)CC1 (stereo not shown)", "category": "rule met"}
{"molecule": "CN1CCN(S(=O)(=O)c2ccc(C(CC3CCCC3)C(=O)Nc3nccc4ccccc34)cc2)CC1 (stereo not shown) [Example 4-1]", "category": "rule met"}
